Listed molecules paired with reported remaining binding at 0.05 µM
Molecular target: wild-type LRRK2 (Homo sapiens, UniProt Q5S007)
Construct: DNA tag for qPCR detection (not a peptide; the protein part that carries it is not described); made in house; host or cells: HEK 293 cells (the same paragraph also describes T7 phage grown in E. coli BL21)
Sequence (Q5S007 970-2527): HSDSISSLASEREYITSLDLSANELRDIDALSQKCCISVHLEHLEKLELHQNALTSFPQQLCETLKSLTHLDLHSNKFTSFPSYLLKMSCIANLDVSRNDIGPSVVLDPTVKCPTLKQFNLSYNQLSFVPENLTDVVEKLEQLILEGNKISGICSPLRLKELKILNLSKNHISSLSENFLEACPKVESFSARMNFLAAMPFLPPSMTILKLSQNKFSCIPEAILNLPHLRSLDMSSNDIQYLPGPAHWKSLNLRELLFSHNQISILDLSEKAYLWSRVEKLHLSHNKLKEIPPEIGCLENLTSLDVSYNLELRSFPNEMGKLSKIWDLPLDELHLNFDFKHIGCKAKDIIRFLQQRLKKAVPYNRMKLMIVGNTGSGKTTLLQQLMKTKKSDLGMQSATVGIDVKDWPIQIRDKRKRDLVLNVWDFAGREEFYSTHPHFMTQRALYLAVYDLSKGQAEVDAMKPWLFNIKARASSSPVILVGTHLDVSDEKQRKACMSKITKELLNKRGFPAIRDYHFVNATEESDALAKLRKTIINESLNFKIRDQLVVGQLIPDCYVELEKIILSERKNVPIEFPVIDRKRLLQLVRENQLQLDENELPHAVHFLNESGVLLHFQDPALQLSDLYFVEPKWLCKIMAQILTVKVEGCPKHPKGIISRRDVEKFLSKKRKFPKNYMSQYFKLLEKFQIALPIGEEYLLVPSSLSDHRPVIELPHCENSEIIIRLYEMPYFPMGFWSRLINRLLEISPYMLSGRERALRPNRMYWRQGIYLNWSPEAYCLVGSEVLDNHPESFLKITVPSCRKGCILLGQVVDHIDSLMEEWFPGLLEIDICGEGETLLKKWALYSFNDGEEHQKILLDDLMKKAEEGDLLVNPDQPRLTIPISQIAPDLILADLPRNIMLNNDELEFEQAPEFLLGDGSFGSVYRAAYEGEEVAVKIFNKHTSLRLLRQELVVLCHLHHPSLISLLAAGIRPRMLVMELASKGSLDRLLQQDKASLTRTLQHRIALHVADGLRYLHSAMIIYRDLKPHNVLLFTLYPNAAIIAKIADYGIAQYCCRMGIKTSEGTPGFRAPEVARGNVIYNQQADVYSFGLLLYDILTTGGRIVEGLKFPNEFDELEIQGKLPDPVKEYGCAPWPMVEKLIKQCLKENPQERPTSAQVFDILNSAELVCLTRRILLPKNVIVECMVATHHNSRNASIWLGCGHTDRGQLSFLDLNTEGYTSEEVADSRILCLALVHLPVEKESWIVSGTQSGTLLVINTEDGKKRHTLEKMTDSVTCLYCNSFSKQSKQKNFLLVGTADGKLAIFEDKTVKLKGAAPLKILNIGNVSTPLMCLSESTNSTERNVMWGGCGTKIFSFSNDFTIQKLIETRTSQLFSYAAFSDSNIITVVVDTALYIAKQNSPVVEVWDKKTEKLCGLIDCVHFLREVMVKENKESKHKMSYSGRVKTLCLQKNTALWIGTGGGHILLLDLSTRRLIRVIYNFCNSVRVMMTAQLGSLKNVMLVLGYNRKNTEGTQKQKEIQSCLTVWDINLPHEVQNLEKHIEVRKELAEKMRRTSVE
Assay: Inhibitory activity against LRRK2: competition binding to ligand-affinity beads, DNA-tagged kinase quantitated by qPCR
Settings: 50 nM compound; % of ctrl; read-out: LRRK2(WT) Remaining kinase activity(%) at 50 nM

Below are worked cases with known answers.
CC(C)n1cc(-c2nc(Nc3ccc(C(=O)N4CCOCC4)cc3OC(F)F)ncc2Cl)cn1
< 30%
COc1cc(C(=O)N2CCS(=O)(=O)CC2)ccc1Nc1ncc(Cl)c(-c2cnn(C(C)C)c2)n1
< 30%
COc1cc(C(=O)N2CC(N3CCOCC3)C2)ccc1Nc1ncc(Cl)c(-c2cnn(C(C)C)c2)n1
< 30%
CCN(C)C(=O)c1ccc(Nc2ncc(Cl)c(-c3cnn(C(C)C)c3)n2)c(OC)c1
< 50%
Cc1cc(C(=O)N2CCN(C)CC2)ccc1Nc1ncc(Cl)c(-c2cnn(C(C)C)c2)n1
< 30%

Per the records, this molecule ( COc1cc(C(=O)NC2CCC(N(C)C)CC2)ccc1Nc1ncc(Cl)c(-c2cnn(C(C)C)c2)n1 (centres unmarked) ) has remaining binding at 0.05 µM equal to < 10%

Noted for `COc1cc(C(=O)NC2CCN(C)CC2)ccc1Nc1ncc(Cl)c(-c2cnn(C(C)C)c2)n1` : its remaining binding at 0.05 µM reads < 10%

// sample `COc1cc(C(=O)N2CCC(C(C)(C)O)CC2)ccc1Nc1ncc(Cl)c(-c2cnn(C(C)C)c2)n1` , its remaining binding at 0.05 µM was < 30%

Reference source: patent US20240254103A9
